- EXPERIMENT_NOTES: small molecules captured by biotinylated probe aFSTL3 – biochemical, small-molecule microarray, fluorescence 635/667, stem cell growth factor project, primary screen (AID 1064);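 further: measures binding of the biotinylated anti-FSTL3 antibody to printed compounds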
- EXPERIMENTAL_SETUP: higher = more signal

MOLECULE | composite z-score
C=CCN1C(=O)[C@]2(O[C@H](CCO)[C@@H]([Si](C)(C)c3ccc(OC)cc3)[C@@H]2C)c2cc(N(C=O)c3ccccc3)ccc21 | 0.0147
COC(=O)[C@]1(Cc2ccccc2)N=C(c2ccc(OCCCO)cc2)O[C@@H]1c1ccccc1N=[N+]=[N-] | -0.186
COC(=O)C(CC#Cc1ccc2c(c1)[C@]1(C(=O)N2)[C@H](c2ccccc2OCCO)N2[C@H](c3ccccc3)[C@H](c3ccccc3)OC(=O)[C@H]2[C@@H]1C(N)=O)C(=O)OC | 1.88
Cc1ccc(S[C@]2(C(=O)O)CC(=O)N(C(C)C)[C@@H]2c2ccc(CO)cc2)cc1 | 0.125
COCCOC(=O)N1C(=O)[C@@]2(c3cc(C#CC4(O)CCCCCC4)ccc31)[C@H](C(=O)Nc1nc3ccccc3s1)[C@H]1C(=O)O[C@H](c3ccccc3)[C@H](c3ccccc3)N1[C@@H]2c1ccccc1OCCO | 0.184
CC(C)=CCCC(C)=CC(O)C1C=CC2C(=O)N(c3ccccc3)C(=O)C2N1Nc1ccc(C(C)C)cc1 (stereo unspecified) | -0.345

---

- EXPERIMENT_NOTES: plasmodial surface anion channel blockers, osmotic lysis – cell-based, P. falciparum Indochina, OD700, 2 h, primary screen (AID 1155);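 further: lysis reports solute entry through the parasite surface anion channel PSAC; channel blockers reduce lysis of infected cells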
- EXPERIMENTAL_SETUP: P. falciparum Indochina infected erythrocytes, called active from +8 up or from −8 down
Calls of active or inactive are those of the source.
Outcome codes: T for active, F for inactive

MOLECULE | CATEGORY
COCCOC(=O)N1C(=O)[C@@]2(c3ccccc31)[C@H](C(=O)N1CCc3cc(OC)c(OC)cc3C1)[C@H]1C(=O)O[C@H](c3ccccc3)[C@H](c3ccccc3)N1[C@@H]2c1ccc(O)cc1 | F
CC(c1ccccc1)C(O)C1C=CC2C(=O)N(c3ccccc3)C(=O)C2N1Nc1ccccc1 (stereo not given) | F
CC(=O)Nc1cc(Br)ccc1C(=O)NCc1ccccc1 | F
COCCOC(=O)N1C(=O)[C@@]2(c3cc(C#CC4=CCCCC4)ccc31)[C@H](c1ccc(OCCO)cc1)N1[C@H](c3ccccc3)[C@H](c3ccccc3)OC(=O)[C@H]1[C@@H]2C(=O)N1CCc2cc(OC)c(OC)cc2C1 | F
CCOC(=O)C[C@H]1[C@H](OC(=O)c2ccc(-c3ccccc3)cc2)[C@@H](NC(=O)c2ccccc2)c2cc(OCCCO)ccc2N1C(=O)Cc1ccc(OC)cc1 | F
COC(=O)[C@]1(CCC(=O)OC(C)(C)C)N=C(c2ccc(OCCCO)cc2)O[C@@H]1c1ccccc1 | T
C=C(CCCC)/C(=C/C[C@@H](OC(C)=O)c1cccc(OCCO)c1)c1cnc2ccccc2c1 | F
CCCNC(=O)[C@@]1(Sc2ccc(C)cc2)CC(=O)N(Cc2ccccc2C(F)(F)F)[C@@H]1c1ccc(CO)cc1I | F
CO[C@H]1O[C@H](CO)[C@@H](OC(=O)Nc2cccc(F)c2)[C@H](OC(=O)Nc2ccccc2)[C@H]1OC(=O)Nc1ccccc1 | F
C=CC[C@]1(C(N)=O)COC(c2ccc(OCCCO)cc2)=N1 | F
C=C(CCCC)/C(=C/C[C@H](OC(=O)c1ccncc1)c1ccc(OCCO)cc1)c1cc(C(=O)OC)ccc1OC | F
COC(=O)[C@@]1(Cc2ccccc2)[C@H]2c3cc(C(=O)N4CCCC4)n(Cc4ccc(O)c(OC)c4)c3C[C@H]2CN1C(=O)c1ccccc1 | F
O=C1C2C=CC(C(O)c3ccc(F)cc3)N(Nc3ccc([N+](=O)[O-])cc3)C2C(=O)N1c1ccccc1 (stereo not given) | F
Cc1c(NC(=O)/C(C#N)=C/c2cccc([N+](=O)[O-])c2)c(=O)n(-c2ccccc2)n1C | F
CN(C)C(=O)[C@]1(Cc2ccccc2)N=C(c2ccc(OCCCO)cc2)O[C@@H]1c1ccccc1N=[N+]=[N-] | T
COCCOC(=O)N1C(=O)[C@@]2(c3cc(C#CC4(O)CCCCCC4)ccc31)[C@H](c1ccccc1OCCO)N1[C@H](c3ccccc3)[C@H](c3ccccc3)OC(=O)[C@H]1[C@@H]2C(=O)N1CCc2cc(OC)c(OC)cc2C1 | F
CCCC=C(CCC)[C@@H](NS(=O)(=O)c1ccc(Cl)cc1)c1ccc(C(=O)OC)cc1 | F
COc1cc(CO)cc(I)c1O[C@H]1C=C(C(=O)NCCO)C[C@@H](N(C(=O)c2cc3ccccc3oc2=O)C2CCCCCC2)[C@@H]1O | F
O=C(NC1CC1)[C@@H]1c2ccccc2C(=O)N(C2Cc3ccccc3C2)[C@H]1c1ccc(CO)cc1 | F
COCCCNC(=O)[C@]1(Cc2ccccc2)N=C(c2ccc(OCCCO)cc2)O[C@@H]1c1ccccc1CN=[N+]=[N-] | T
[N-]=[N+]=NCc1ccccc1[C@@H]1OC(c2ccc(OCCCO)cc2)=N[C@]1(CCS(=O)(=O)c1ccccc1)C(=O)N1CCOCC1 | T
COc1ccc([Si](C)(C)[C@H]2[C@H](CC(=O)N3CCC[C@H]3CO)O[C@@]3(C(=O)N(Cc4cccc(N5CCOC5=O)c4)c4ccccc43)[C@@H]2C)cc1 | F
O=C1N(CCS(=O)(=O)c2ccccc2)c2ccccc2[C@@H]2OC(c3ccc(OCCCO)cc3)=N[C@]12Cc1ccccc1 | T
C=CC[C@]1(C(=O)NCc2ccccc2)N=C(c2ccc(OCCCO)cc2)O[C@H]1c1ccccc1CN=[N+]=[N-] | F
CC(C)[Si](C#CCCCC#N)(Oc1ccccc1Br)C(C)C | F
Cc1ccc(S(=O)(=O)N2C[C@@H](C(=O)O)[C@H](Sc3ccccc3)C[C@H]2c2ccccc2)cc1 | F
O=C1NC(=O)C2C1C=CC(C(O)c1ccc(I)cc1)N2Nc1ccc(Cl)cc1Cl (stereo not given) | F
COc1ccc([C@H]2OC[C@@H]3CCC(=O)N32)cc1 | F
O=C1C2C=CC(C(O)COCc3ccccc3)N(Nc3ccc([N+](=O)[O-])cc3)C2C(=O)N1c1ccccc1 (stereo not given) | F
CCCC1(C(=O)OC)C=C2C(=C(c3ccccc3)C(=O)C2C)CN1 (stereo not given) | F

---

- EXPERIMENT_NOTES: plasmodial surface anion channel blockers, osmotic lysis – cell-based, P. falciparum Indochina, OD700, 1 h, primary screen (AID 1154)
- EXPERIMENTAL_SETUP: P. falciparum Indochina infected RBC osmotic lysis, higher = more signal, called active from +8 up or from −8 down
Measured z-score accompanies every entry in the list below.

MOLECULE | z-score
CCCC(=O)N(CCc1c[nH]c2ccccc12)[C@@H]1CC(C(=O)NCCO)=C[C@H](Oc2c(I)cc(CO)cc2OC)[C@H]1O | 13.2
COC(=O)C(CC#Cc1ccc2c(c1)[C@]1(C(=O)N2)[C@H](c2ccccc2OCCO)N2[C@H](c3ccccc3)[C@H](c3ccccc3)OC(=O)[C@H]2[C@@H]1C(=O)O)C(=O)OC | 4.94
CCOC(=O)C1=CC[C@@H](c2ccc(C(F)(F)F)cc2)N(S(=O)(=O)c2ccc(C)cc2)[C@H]1c1ccccc1 | 1.62
Cc1ccc(S[C@]2(C(=O)O)CC(=O)N(C(C)C)[C@@H]2c2ccc(CO)cc2)cc1 | 1.05
C=CCC(OC(C)=O)[C@@H]1[C@@H](N(Cc2ccc(-c3ccccc3)cc2)C(=O)Cc2ccc(F)cc2)c2cc(OCCCO)ccc2N1C(=O)c1ccc2ccccc2c1 (some centres not stated) | -0.0408
O=C1NC(=O)C2C1C=CC(C(O)c1ccc(I)cc1)N2Nc1ccc(Cl)cc1Cl (configuration not stated) | 5.17
CCOC(=O)C1=CC[C@@H](c2ccccc2)N(S(=O)(=O)c2ccc(C)cc2)[C@H]1c1ccc(CC)cc1 | 0.874
NC(=O)NCC#Cc1ccc2c(c1)[C@]1(C(=O)N2)[C@H](C(=O)O)[C@H]2C(=O)O[C@H](c3ccccc3)[C@H](c3ccccc3)N2[C@@H]1c1ccc(O)cc1 | 0.141
CCOC(=O)C1=CCC(c2ccc(F)cc2)N(S(=O)(=O)c2ccc(C)cc2)C1 (configuration not stated) | 1.44
CN(C)CCCC[C@@H]1NC(=O)[C@H]2C[C@@H](C(=O)NCCCCCN)[C@@H](c3cccc(OCCO)c3)N2C1=O | 1.9
NCCCCCNC(=O)[C@H]1C[C@H]2C(=O)N3CCC[C@H]3C(=O)N2[C@H]1c1ccc(O)cc1 | 0.888
COc1ccc([C@H]2C[C@H]3C(Br)=C[C@@]2(CO)C(=O)[C@]32CO2)cc1 | -0.0473
CCCC=C(CCC)[C@@H](NC(=O)OCC(C)C)c1ccccc1 | -0.725
CCOC(=O)C[C@H]1[C@H](OC(=O)c2ccc(-c3ccccc3)cc2)[C@@H](NC(=O)c2ccccc2)c2cc(OCCCO)ccc2N1C(=O)Cc1ccc(OC)cc1 | 1.93
CC(=CC1CCCCC1)[C@@H](NC(=O)c1cccnc1)c1ccc(-c2ccccc2)cc1 | 1.85
C#CCN1[C@@H](Cc2ccc(O)cc2)C(=O)O[C@H](Cc2ccccc2)[C@@H]1/C=C/C1CC1 | 2.45
Cc1ccc(/C=C/C=O)cc1 | 0.248
